target.system: Luciferin 4-monooxygenase (Photinus pyralis)
test.description: Primary firefly luciferase (FLuc) qHTS assay for identification of artifact compounds. (AID 1845220);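 further: plate controls were DMSO vehicle for no effect and no enzyme for full effect; nearly all actives have a fitted effect of over 60% in size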
experimental.setup: purified firefly luciferase, luminescence, 5 min; series mostly up to 54.1 µM
The source made the active and inactive calls. The call rests on the fitted dose curve; in most records, active means well fitted inhibition curve with a large enough effect; inconclusive means small, poorly fitted or top-dose-only effect; inactive means flat fitted curve, though single readings scatter.
assay.metric: activity change, negative = inhibition

As a guide, the following entries are already answered.
Challenge: Under Luciferin 4-monooxygenase (Photinus pyralis): activity change, negative = inhibition value of CC1=C(C(=O)O[C@@H]2O[C@H](COC3OCC(O)C(O)C3O)[C@@H](O)[C@H](O)[C@H]2O)C(C)(C)CCC1 (stereo partly specified) ?
Response given: inactive

Challenge: Same lookup for CN1CCC(Nc2nc(Nc3ccc(Oc4ccccc4)cc3)c3c(=O)[nH]cc(Br)c3n2)CC1 , please.
Response given: inactive

Challenge: Same lookup for CC1=C(C)C(=O)OC(C(C)C2CCC3C4C5OC5C5(O)CC(OC6OC(CO)C(OC7OC(C)C(O)C(O)C7O)C(O)C6O)CC(O)C5(C)C4CCC23C)C1 (stereo unspecified) , please.
Response given: inactive

Challenge: Same lookup for C=CC(C)(O)CC/C=C(\C)C(=O)OC1C(O)C(CO)OC(OC(=O)C23CCC(C)(C)CC2C2=CCC4C5(C)CCC(OC6OC(COC7OCC(OC(C)=O)C(O)C7OC7OC(COC(C)=O)C(O)C(O)C7O)C(O)C(O)C6O)C(C)(C)C5CCC4(C)C2(C)C(O)C3O)C1OC1OCC(OC2OCC(O)C(OC3OCC(O)C(O)C3O)C2O)C(O)C1O (stereo unspecified) , please.
Response given: 0.903% [at 6.45 µM] (inactive)

***
Challenge: Under Luciferin 4-monooxygenase (Photinus pyralis): activity change, negative = inhibition value of O=C(Nc1c(-c2cccs2)nc2ccccn12)c1ccc(Cl)cc1 ?
Response given: inactive

Challenge: Same lookup for C=CC(=O)Nc1cc(Nc2ncc(Cl)c(-c3c[nH]c4ccccc34)n2)c(OC)cc1N(C)CCN(C)C , please.
Response given: inactive

----------
System: OV90
test.description: Primary qHTS to identify gynecologic anti-cancer compounds using libraries of approved drugs and bioactive compounds (AID 1345084); further: on the % scale 0 is the no-effect control and ±100 the full control effect; nearly all actives have a fitted effect of over 55% in size
experimental.setup: Gynecologic cancer cell panel viability, ATPlite luminescence, 48 h; series mostly up to 57.5 µM
Inconclusive results are not listed. Calls of active or inactive are those of the source. The call rests on the fitted dose curve; in most records, active means well fitted cell-killing curve with a large enough effect; inconclusive means small, poorly fitted or top-dose-only effect, or effect the other way; inactive means flat fitted curve, though single readings scatter.
assay.metric: activity change, negative = cytotoxicity

As a guide, the following entries are already answered.
Challenge: Quick one: activity change, negative = cytotoxicity of C[C@@H]1O[C@@H](O[C@H]2[C@H](O)[C@@H](O[C@@H]3O[C@H](CO)[C@@H](O)[C@H](O[C@@H]4O[C@H](CO)[C@@H](O)[C@H](O)[C@H]4O)[C@H]3O)[C@H](O[C@H]3CC[C@@]4(C)C(=CC[C@@H]5C4CC[C@@]4(C)C5C[C@@H]5OC6(CC[C@@](C)(CO[C@@H]7O[C@H](CO)[C@@H](O)[C@H](O)[C@H]7O)O6)[C@@H](C)[C@@H]54)C3)O[C@@H]2CO)[C@H](O)[C@H](O)[C@H]1OC1OC(CO)C(O)C(O)C1O (stereo partly specified) ?
Response given: -1.64% [at 6.55 µM] (inactive)

Challenge: Same lookup for CC1(C)CC2C(O)c3cocc3CC(C)(O)C2C1 (stereo unspecified) , please.
Response given: inactive

Challenge: Same lookup for CC1=C2C(O)C(=O)OC(c3ccoc3)C2(C)CCC1O (stereo unspecified) , please.
Response given: inactive

Challenge: Same lookup for OCc1ccc(O[C@@H]2O[C@H](CO)[C@@H](O)[C@H](O)[C@H]2O)cc1 , please.
Response given: inactive

Challenge: Same lookup for CC(C(O)/C=C/C(C)(C)O)C1CCC2(C)C3C(=O)C=C4C(CCC(O)C4(C)C)C3(C)CCC12C (stereo unspecified) , please.
Response given: inactive

***
Challenge: Quick one: activity change, negative = cytotoxicity of OC[C@H]1O[C@@H](O[C@H]2[C@H](OCc3ccccc3)O[C@H](CO[C@@H]3OC[C@@H](O)[C@H](O)[C@H]3O)[C@@H](O)[C@@H]2O)[C@H](O)[C@@H](O)[C@@H]1O ?
Response given: inactive

Ref: PubChem BioAssay (NCATS)
